Where do the numbers come from? From patent US20190142800A1.

Test system: Trichophyton rubrum (ATCC-28188)
Experiment: Checkerboard assay of fatty acid/ester with antifungals on Trichophyton rubrum (ATCC 28188)
Format: cell-based
Design: key: FIC index = sum of FICs; FIC = agent conc in well / agent MIC
Settings: antifungal in combination with propylene glycol monocaprylate
Please note: FIC index exactly at 0.6 is Not met. Only values below 0.6 get Met.

Task item: Given the entry CCC(C)n1ncn(-c2ccc(N3CCN(c4ccc(OCC5COC(Cn6cncn6)(c6ccc(Cl)cc6Cl)O5)cc4)CC3)cc2)c1=O (stereo not drawn) , would its reported FIC index be below 0.6?
Reply: Not met

Task item: Given the entry C[C@@H]1[C@H](O)[C@@H](C)/C=C/C=C/C=C/C=C/C=C/C=C/C=C/[C@H](O[C@@H]2O[C@H](C)[C@@H](O)[C@H](N)[C@@H]2O)C[C@@H]2O[C@](O)(C[C@@H](O)C[C@@H](O)[C@H](O)CC[C@@H](O)C[C@@H](O)CC(=O)O[C@H]1C)C[C@H](O)[C@H]2C(=O)O , would its reported FIC index be below 0.6?
Reply: Met

Task item: Given the entry CC[C@H](C)C[C@H](C)CCCCCCCCC(=O)N[C@H]1C[C@@H](O)[C@@H](NCCN)NC(=O)[C@@H]2[C@@H](O)CCN2C(=O)[C@H]([C@H](O)CCN)NC(=O)[C@H]([C@H](O)[C@@H](O)c2ccc(O)cc2)NC(=O)[C@@H]2C[C@@H](O)CN2C(=O)[C@H]([C@@H](C)O)NC1=O , would its reported FIC index be below 0.6?
Reply: Met

---

We begin with a simple list: items and their reported FIC.
Tested on: azole resistant C. albicans MTCC 227
Experiment: Checkerboard assay on azole resistant C. albicans MTCC 227
Type: cell-based, Candida albicans
Conditions: combination antifungal + propylene glycol monocaprylate
Procedure: The synergy is measured by determining the fractional inhibitory concentration (FIC) value of the combination. […] FIC values for both agents in a particular well were calculated in this way followed by determination of the FIC index (sum of the FICs of each drug in the concerned well). […]

Consider the worked cases shown below.
{"columns": ["COMPOUND", "MEASURED_QUANTITY", "EXPERIMENTAL_RESULT"],
 "data": [
  ["C=C1CCN([C@H](C)[C@](O)(Cn2cncn2)c2ccc(F)cc2F)CC1", "FIC", 0.031],
  ["Clc1ccccc1C(c1ccccc1)(c1ccccc1)n1ccnc1", "FIC", 0.25],
  ["CC(=O)N1CCN(c2ccc(OCC3COC(Cn4ccnc4)(c4ccc(Cl)cc4Cl)O3)cc2)CC1 (centres unmarked)", "FIC", 0.0625],
  ["N#C/C(=C1/SC[C@@H](c2ccc(Cl)cc2Cl)S1)n1ccnc1", "FIC", 0.0625]
]}

Next, consider the following compound.
Task item: // lookup FIC for CCC(C)n1ncn(-c2ccc(N3CCN(c4ccc(OCC5COC(Cn6cncn6)(c6ccc(Cl)cc6Cl)O5)cc4)CC3)cc2)c1=O (centres unmarked)
Reply: 0.002

---

Tested on: Trichophyton rubrum (ATCC-28188)
Test: Checkerboard assay of fatty acid/ester with antifungals on Trichophyton rubrum (ATCC 28188)
Assay type: cell-based
Conditions: agent's MIC in combination antifungal + propylene glycol monocaprylate (partner: other agent of same combination no.)
MEASURED_QUANTITY: Combination MIC (µg/mL)
The reply should contain only the number, in µg/mL.

Consider the worked cases shown below.
{"columns": ["COMPOUND", "EXPERIMENTAL_SYSTEM", "EXPERIMENTAL_RESULT"],
 "data": [
  ["CC[C@H](C)C[C@H](C)CCCCCCCCC(=O)N[C@H]1C[C@@H](O)[C@@H](NCCN)NC(=O)[C@@H]2[C@@H](O)CCN2C(=O)[C@H]([C@H](O)CCN)NC(=O)[C@H]([C@H](O)[C@@H](O)c2ccc(O)cc2)NC(=O)[C@@H]2C[C@@H](O)CN2C(=O)[C@H]([C@@H](C)O)NC1=O", "Trichophyton rubrum (ATCC-28188)", 0.125],
  ["C=C1CCN([C@H](C)[C@](O)(Cn2cncn2)c2ccc(F)cc2F)CC1", "Trichophyton rubrum (ATCC-28188)", 0.007],
  ["Cc1cc(C2CCCCC2)n(O)c(=O)c1", "Trichophyton rubrum (ATCC-28188)", 0.06],
  ["C[C@@H]1[C@H](O)[C@@H](C)/C=C/C=C/C=C/C=C/C=C/C=C/C=C/[C@H](O[C@@H]2O[C@H](C)[C@@H](O)[C@H](N)[C@@H]2O)C[C@@H]2O[C@](O)(C[C@@H](O)C[C@@H](O)[C@H](O)CC[C@@H](O)C[C@@H](O)CC(=O)O[C@H]1C)C[C@H](O)[C@H]2C(=O)O", "Trichophyton rubrum (ATCC-28188)", 0.125],
  ["CC(=O)N1CCN(c2ccc(OCC3COC(Cn4ccnc4)(c4ccc(Cl)cc4Cl)O3)cc2)CC1 (stereo not drawn)", "Trichophyton rubrum (ATCC-28188)", 0.0375]
]}

Next, consider the following compound.
Task item: Lab note: need Combination MIC for CCC(C)n1ncn(-c2ccc(N3CCN(c4ccc(OCC5COC(Cn6cncn6)(c6ccc(Cl)cc6Cl)O5)cc4)CC3)cc2)c1=O (stereo not drawn) on Trichophyton rubrum (ATCC-28188), anyone have it?
Reply: 0.015
